Consider the following molecules and their measured IC50 readings.
# target.of.assay: Human recombinant PDE2A (hPDE2A) (Homo sapiens, UniProt O00408)
# Construct: His tag (inferred from metal chelate purification); made in house; host or cells: Sf9 insect cells (baculovirus)
# Sequence (O00408 whole entry): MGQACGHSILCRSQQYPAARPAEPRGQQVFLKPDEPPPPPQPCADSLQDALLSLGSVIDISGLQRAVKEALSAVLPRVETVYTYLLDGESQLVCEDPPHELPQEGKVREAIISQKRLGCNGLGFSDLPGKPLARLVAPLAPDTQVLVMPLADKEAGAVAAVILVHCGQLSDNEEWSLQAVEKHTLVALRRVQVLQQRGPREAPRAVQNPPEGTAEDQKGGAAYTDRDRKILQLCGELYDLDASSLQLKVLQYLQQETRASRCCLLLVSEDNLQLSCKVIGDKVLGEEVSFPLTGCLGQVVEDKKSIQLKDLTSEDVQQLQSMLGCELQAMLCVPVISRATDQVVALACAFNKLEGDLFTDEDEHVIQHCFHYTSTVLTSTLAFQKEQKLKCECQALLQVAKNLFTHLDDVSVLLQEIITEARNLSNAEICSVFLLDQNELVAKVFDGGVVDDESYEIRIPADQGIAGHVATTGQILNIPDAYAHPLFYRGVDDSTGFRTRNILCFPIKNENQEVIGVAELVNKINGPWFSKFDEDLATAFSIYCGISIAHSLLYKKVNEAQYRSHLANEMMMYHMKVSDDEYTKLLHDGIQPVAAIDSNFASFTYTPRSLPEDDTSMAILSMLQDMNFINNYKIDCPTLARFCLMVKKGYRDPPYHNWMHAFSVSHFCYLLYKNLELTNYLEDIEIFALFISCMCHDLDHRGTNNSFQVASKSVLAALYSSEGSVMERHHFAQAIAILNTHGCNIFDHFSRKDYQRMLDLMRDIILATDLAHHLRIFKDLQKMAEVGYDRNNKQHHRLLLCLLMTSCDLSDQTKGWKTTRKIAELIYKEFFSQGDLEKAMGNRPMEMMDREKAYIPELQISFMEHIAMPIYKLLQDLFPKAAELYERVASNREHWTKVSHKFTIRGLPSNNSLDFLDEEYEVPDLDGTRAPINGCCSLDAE
# assay.name: In vitro assay PDE2A (SPA, 3H-cGMP hydrolysis)
# Assay type: biochemical
# condition.details: hPDE2A pIC50, human recombinant PDE2A, 10 μM cGMP substrate

{"molecule": "Cc1cc([C@H]2CN(C(=O)c3ccc4ncsc4c3)CC[C@@H]2C)n2ncnc2n1 [Compound 2b]", "IC50": "19.1 nM"}
{"molecule": "COc1cc(C(=O)N2CC[C@@H](C)[C@H](c3cc(C)nc4ncnn34)C2)cc(Cl)n1 [Compound 22]", "IC50": "2.34 nM"}
{"molecule": "Cc1cc(C(=O)N2CC[C@@H](C)[C@H](c3cc(C)nc4ncnn34)C2)cc(C(F)(F)F)n1 [Compound 4]", "IC50": "1.45 nM"}
{"molecule": "Cc1cc([C@H]2CN(C(=O)c3cc(C)c(Cl)c(C)c3)CC[C@@H]2C)n2ncnc2n1 [Compound 218]", "IC50": "204 nM"}
{"molecule": "Cc1cc([C@@H]2CN(C(=O)c3ccc4occ(C)c4c3)CC[C@H]2C)n2ncnc2n1 [Compound 5]", "IC50": "0.955 nM"}

Continue with the molecule presented below.
Task: Entry Cc1cc([C@@H]2CN(C(=O)c3ccc4ncsc4c3)CC[C@H]2C)n2ncnc2n1 [Compound 2a] has what IC50?
Result: 0.589 nM

---

# target.of.assay: Human recombinant PDE10A (hPDE10A) (Homo sapiens, UniProt Q9Y233)
# Construct: His tag (inferred from metal chelate purification); made in house; host or cells: Sf9 insect cells (baculovirus)
# Sequence (Q9Y233 267-1055): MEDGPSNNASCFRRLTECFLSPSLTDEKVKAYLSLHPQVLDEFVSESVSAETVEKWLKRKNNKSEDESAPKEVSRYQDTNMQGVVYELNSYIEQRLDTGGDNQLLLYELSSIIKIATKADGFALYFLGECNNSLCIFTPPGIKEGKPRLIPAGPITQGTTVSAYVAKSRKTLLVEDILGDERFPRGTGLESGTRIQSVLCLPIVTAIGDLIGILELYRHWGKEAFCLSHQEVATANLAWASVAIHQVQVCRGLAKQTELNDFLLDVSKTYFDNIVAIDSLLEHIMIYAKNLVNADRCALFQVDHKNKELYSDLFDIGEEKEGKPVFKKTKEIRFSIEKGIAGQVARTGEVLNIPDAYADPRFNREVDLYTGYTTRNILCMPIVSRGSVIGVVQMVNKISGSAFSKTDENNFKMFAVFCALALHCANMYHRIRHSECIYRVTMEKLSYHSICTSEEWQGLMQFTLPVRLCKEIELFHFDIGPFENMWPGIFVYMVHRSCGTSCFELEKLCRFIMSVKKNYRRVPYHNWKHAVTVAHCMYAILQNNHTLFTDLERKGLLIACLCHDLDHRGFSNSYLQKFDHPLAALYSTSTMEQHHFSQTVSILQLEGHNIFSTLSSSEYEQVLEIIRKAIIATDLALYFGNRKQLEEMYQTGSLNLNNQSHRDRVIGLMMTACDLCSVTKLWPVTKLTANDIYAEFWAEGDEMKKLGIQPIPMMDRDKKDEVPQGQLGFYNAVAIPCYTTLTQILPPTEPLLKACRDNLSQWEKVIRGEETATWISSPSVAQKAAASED
# assay.name: In vitro assay PDE10A, human clone (SPA, 3H-cAMP hydrolysis)
# Format: biochemical
# condition.details: human clone (h), default; read-out: hPDE10A2 Emax
# Description: Rat recombinant PDE10A (rPDE10A2) was expressed in Sf9 cells using a recombinant rPDE10A baculovirus construct. […] Tested compounds were dissolved and diluted in 100% DMSO to a concentration 100 fold of the final concentration in the assay. […] After sedimentation of the beads during 30 minutes the radioactivity was measured in a Perkin Elmer Topcount scintillation counter and results were expressed as cpm. […]
Category scheme (Emax): range A = under 70%, range B = from 70% up to 90%, range C = 90% and over

{"compound": "C[C@@H]1CCN(C(=O)c2ncccc2C(F)(F)F)C[C@H]1c1cc(C(F)F)nc2ncnn12", "class.name": "range A"}
{"compound": "Cc1cc([C@@H]2CN(C(=O)c3nc4ccccc4o3)CC[C@H]2C)n2ncnc2n1", "class.name": "range C"}
{"compound": "C[C@@H]1CCN(C(=O)c2ccc(Cl)s2)C[C@H]1c1cc(C(F)F)nc2ncnn12", "class.name": "range C"}

Task: State the class of the compound shown: `C[C@@H]1CCN(C(=O)c2cnn(C)c2)C[C@H]1c1cc(C(F)F)nc2ncnn12`
Result: range C

Task: Hi there! Could you help me figure out the category for `Cc1ccc(F)c(C(=O)N2CC[C@@H](C)[C@@H](c3cc(C(F)F)nc4ncnn34)C2)n1` please?
Result: range A

Task: Into which category would you place `C[C@@H]1CCN(C(=O)c2ncccc2N)C[C@H]1c1cc(C(F)F)nc2ncnn12` ?
Result: range A

Task: Would you mind sorting Cc1ccc(C(=O)N2CCC[C@](C)(c3cc(C(F)F)nc4ncnn34)C2)c(C)n1 (single isomer, unassigned) into the appropriate category?
Result: range A

Task: Please let me know in which category the item `C[C@@H]1CCN(C(=O)c2cccnc2F)C[C@H]1c1cc(C(F)F)nc2ncnn12` belongs.
Result: range B

---

# target.of.assay: PDE2A (Rattus norvegicus, UniProt Q01062)
# Construct: Twenty μm-thick striatal sections were cut; from tissue; host or cells: rat brain, striatal sections
# Sequence (Q01062 whole entry): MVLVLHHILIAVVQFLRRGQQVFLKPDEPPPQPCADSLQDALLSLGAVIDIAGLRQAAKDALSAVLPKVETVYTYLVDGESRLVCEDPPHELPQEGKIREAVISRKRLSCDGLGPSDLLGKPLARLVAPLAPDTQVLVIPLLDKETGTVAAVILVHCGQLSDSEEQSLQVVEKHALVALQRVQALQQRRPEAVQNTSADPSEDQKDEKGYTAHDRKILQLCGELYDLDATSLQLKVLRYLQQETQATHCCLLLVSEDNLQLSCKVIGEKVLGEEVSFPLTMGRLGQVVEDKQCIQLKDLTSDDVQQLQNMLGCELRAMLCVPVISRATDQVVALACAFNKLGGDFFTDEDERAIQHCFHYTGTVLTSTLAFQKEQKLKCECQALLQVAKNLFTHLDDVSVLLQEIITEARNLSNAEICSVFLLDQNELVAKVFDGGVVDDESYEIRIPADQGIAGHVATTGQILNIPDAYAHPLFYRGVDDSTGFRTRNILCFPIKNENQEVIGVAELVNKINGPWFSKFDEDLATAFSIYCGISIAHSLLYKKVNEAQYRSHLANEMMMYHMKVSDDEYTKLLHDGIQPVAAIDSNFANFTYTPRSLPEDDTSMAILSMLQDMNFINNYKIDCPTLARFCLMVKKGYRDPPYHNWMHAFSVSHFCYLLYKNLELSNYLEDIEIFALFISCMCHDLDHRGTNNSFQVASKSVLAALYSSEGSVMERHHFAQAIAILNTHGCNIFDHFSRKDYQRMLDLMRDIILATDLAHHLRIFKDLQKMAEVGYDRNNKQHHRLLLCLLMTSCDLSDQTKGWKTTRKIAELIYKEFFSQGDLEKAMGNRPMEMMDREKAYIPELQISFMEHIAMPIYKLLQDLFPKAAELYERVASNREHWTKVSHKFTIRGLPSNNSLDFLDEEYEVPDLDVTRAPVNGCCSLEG
# assay.name: PDE2 occupancy by test compounds, ex-vivo autoradiography with [3H]B-17a
# Format: in vivo, Male Wistar rats
# condition.details: 10 mg/kg, route PO (oral), percentage receptor occupancy, ex-vivo autoradiography, striatum
receptor occupancy at 10 mg/kg vs 20%: at or above is 1 (yes), below is 0 (no).

Examples with answers:
{"chem.smiles": "CCn1ccc2cc(C(=O)N3[C@H]4CC[C@H](c5cc(C(F)F)nc6ncnn56)[C@@H]3CC4)ccc21", "class.name": "0 (no)"}
{"chem.smiles": "COc1cccc2c1OCC(C(=O)N1[C@H]3CC[C@H](c4cc(C(F)F)nc5ncnn45)[C@@H]1CC3)=C2", "class.name": "1 (yes)"}
{"chem.smiles": "Cc1cc(C(=O)N2[C@H]3CC[C@H](c4cc(C(F)F)nc5ncnn45)[C@@H]2CC3)cnc1C", "class.name": "0 (no)"}
{"chem.smiles": "Cc1cc(C(=O)N2[C@H]3CC[C@H](c4cc(C(F)F)nc5ncnn45)[C@@H]2CC3)cc(C)c1C#N", "class.name": "1 (yes)"}
{"chem.smiles": "Cc1cc(C)cc(C(=O)N2[C@H]3CC[C@H](c4cc(C(F)F)nc5ncnn45)[C@@H]2CC3)c1", "class.name": "0 (no)"}

Task: Kindly determine if receptor occupancy at 10 mg/kg recorded for `O=C(c1cnc2c(Cl)cccc2c1)N1[C@H]2CC[C@H](c3cc(C(F)F)nc4ncnn34)[C@@H]1CC2` is above or exactly 20%.
Result: 1 (yes)

Task: Form field: receptor occupancy at 10 mg/kg at least 20%? Entry: `O=C(c1ccc2cccn2c1)N1[C@H]2CC[C@H](c3cc(C(F)F)nc4ncnn34)[C@@H]1CC2`
Result: 1 (yes)

Task: In plain terms: is recorded receptor occupancy at 10 mg/kg at least 20% for `O=C(c1ccc(Cl)c(Cl)c1)N1[C@H]2CC[C@H](c3cc(C(F)F)nc4ncnn34)[C@@H]1CC2` ?
Result: 1 (yes)

Task: Test whether the molecule `Cc1cc2ccc(C(=O)N3[C@H]4CC[C@H](c5cc(C(F)F)nc6ncnn56)[C@@H]3CC4)cn2c1` records receptor occupancy at 10 mg/kg of 20% or higher.
Result: 0 (no)

Task: Is receptor occupancy at 10 mg/kg for `COc1cc(C(=O)N2[C@H]3CC[C@H](c4cc(C(F)F)nc5ncnn45)[C@@H]2CC3)cc(C)n1` at or above 20%?
Result: 0 (no)

Task: Identify whether the reported receptor occupancy at 10 mg/kg of the following molecule is 20% or greater: `Cc1cc(C(=O)N2[C@H]3CC[C@H](c4cc(C(F)F)nc5ncnn45)[C@@H]2CC3)cc(C(F)(F)F)n1`
Result: 0 (no)

---

# target.of.assay: Human recombinant PDE2A (hPDE2A) (Homo sapiens, UniProt O00408)
# Construct: His tag (inferred from metal chelate purification); made in house; host or cells: Sf9 insect cells (baculovirus)
# assay.name: In vitro assay PDE2A (SPA, 3H-cGMP hydrolysis)
# Format: biochemical
# condition.details: read-out: hPDE2A Emax
measured.parameter: Emax (%)
All answers are understood in %, so give the number only.

Solved entries (count: 10):
{"chem.smiles": "COc1cc(C(=O)N2[C@H]3CC[C@H](c4cc(C(F)F)nc5ncnn45)[C@@H]2CC3)cc(OC)n1", "target.of.assay": "Human recombinant PDE2A (hPDE2A) (Homo sapiens, UniProt O00408)", "value.observed": 100}
{"chem.smiles": "C[C@@H]1CCN(C(=O)c2cnc3c(Cl)cccc3c2)C[C@H]1c1cc(C(F)F)nc2ncnn12", "target.of.assay": "Human recombinant PDE2A (hPDE2A) (Homo sapiens, UniProt O00408)", "value.observed": 100}
{"chem.smiles": "Cc1nc2ccc(C(=O)N3CC[C@@H](C)[C@H](c4cc(C(F)F)nc5ncnn45)C3)cc2o1", "target.of.assay": "Human recombinant PDE2A (hPDE2A) (Homo sapiens, UniProt O00408)", "value.observed": 99}
{"chem.smiles": "C[C@@H]1CCN(C(=O)c2ccc3c(c2)OCCC3)C[C@H]1c1cc(C(F)F)nc2ncnn12", "target.of.assay": "Human recombinant PDE2A (hPDE2A) (Homo sapiens, UniProt O00408)", "value.observed": 100}
{"chem.smiles": "Cc1nc2ccc(C(=O)N3[C@H]4CC[C@H](c5cc(C(F)F)nc6ncnn56)[C@@H]3CC4)cc2o1", "target.of.assay": "Human recombinant PDE2A (hPDE2A) (Homo sapiens, UniProt O00408)", "value.observed": 99}
{"chem.smiles": "C[C@@H]1CCN(C(=O)c2cnc3c(F)cccc3c2)C[C@H]1c1cc(C(F)F)nc2ncnn12", "target.of.assay": "Human recombinant PDE2A (hPDE2A) (Homo sapiens, UniProt O00408)", "value.observed": 100}
{"chem.smiles": "C[C@@H]1CCN(C(=O)c2ccc(F)c(C3CC3)c2)C[C@H]1c1cc(C(F)F)nc2ncnn12", "target.of.assay": "Human recombinant PDE2A (hPDE2A) (Homo sapiens, UniProt O00408)", "value.observed": 100}
{"chem.smiles": "Cc1cc(C(=O)N2CC[C@@H](C)[C@H](c3cc(C(F)F)nc4ncnn34)C2)cc(C)c1Cl", "target.of.assay": "Human recombinant PDE2A (hPDE2A) (Homo sapiens, UniProt O00408)", "value.observed": 99}
{"chem.smiles": "Cc1cc([C@@H]2CN(C(=O)c3oc4ccccc4c3C)CC[C@H]2C)n2ncnc2n1", "target.of.assay": "Human recombinant PDE2A (hPDE2A) (Homo sapiens, UniProt O00408)", "value.observed": 100}
{"chem.smiles": "Cc1cc([C@@H]2CN(C(=O)c3cc(C)sc3C)CC[C@H]2C)n2ncnc2n1", "target.of.assay": "Human recombinant PDE2A (hPDE2A) (Homo sapiens, UniProt O00408)", "value.observed": 100}

Task: Reported Emax for `C[C@@H]1CCN(C(=O)c2ccc(O)c(F)c2)C[C@H]1c1cc(C(F)F)nc2ncnn12` : what is it?
Result: 98

Task: Look up Emax for this compound: `C[C@@H]1CCN(C(=O)c2cc(-c3ccco3)nn2C)C[C@H]1c1cc(C(F)F)nc2ncnn12`
Result: 100
